tested-system: JAK2 (catalytic domain, His-tag) (Homo sapiens)
Construct: All four purified enzymes contain only the catalytic domain; His (N); purchased Carna Biosciences, Inc; host or cells: baculovirus expression system
Sequence (O60674 849-1124 limits assumed): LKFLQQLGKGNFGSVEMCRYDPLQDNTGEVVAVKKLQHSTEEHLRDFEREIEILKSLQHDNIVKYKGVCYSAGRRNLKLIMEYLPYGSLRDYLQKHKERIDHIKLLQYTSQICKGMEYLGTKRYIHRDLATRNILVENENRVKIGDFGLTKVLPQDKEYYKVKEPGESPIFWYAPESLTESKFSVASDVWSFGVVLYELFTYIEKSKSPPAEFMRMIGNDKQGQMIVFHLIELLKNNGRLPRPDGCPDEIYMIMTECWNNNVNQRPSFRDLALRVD
run-description: JAK kinase assay (HTRF, phosphorylation of TK substrate-biotin), JAK2
Type: biochemical
condition-info: ATP at Km (4 μM); read-out: JAK2 kinase inhibitory activity (EC50 indicator)
pEC50: −log10 of the molar value.
Kindly supply the reported pEC50 values for the records listed here.

Consider the reported pEC50 for these compounds:
{"compound": "O=C(Cc1cccs1)N1CCN(c2ncnc3[nH]ccc23)CC12CC2", "pEC50": "> 7.00"}
{"compound": "N#CCC(=O)N1[C@@H]2CC[C@H]1CN(c1ncnc3[nH]ccc13)C2", "pEC50": "6.30 to 7.00"}
{"compound": "CS(=O)(=O)c1ccc(C(=O)N2CCN(c3ncnc4[nH]ccc34)CC23CC3)c(F)c1", "pEC50": "> 7.00"}
{"compound": "NS(=O)(=O)c1cc(OCC(=O)N2CCN(c3ncnc4[nH]ccc34)CC23CC3)ccc1Cl", "pEC50": "> 7.00"}
{"compound": "N#CCCC(=O)N1[C@@H]2CC[C@@H]1CN(c1ncnc3[nH]ccc13)C2", "pEC50": "> 7.00"}
{"compound": "N#CCOc1ccc(CC(=O)N2CCN(c3ncnc4[nH]ccc34)CC23CC3)cc1", "pEC50": "> 7.00"}

// batch mode: one pEC50 value per listed entry
1. O=C(c1cc2ccccc2s1)N1CCN(c2ccnc3[nH]ccc23)CC12CC2
2. O=C(CCc1ccccc1)N1CCN(c2ncnc3[nH]ccc23)CC12CC2
3. N#Cc1ccc(C(=O)N2CCN(c3ncnc4[nH]ccc34)CC23CC3)cc1
4. O=C(Cc1c[nH]c2ccccc12)N1CCN(c2ncnc3[nH]ccc23)CC12CC2
5. CC1CN(C(=O)Cc2ccc(C#N)cc2)C2(CC2)CN1c1ncnc2[nH]ccc12 (stereo not drawn)
6. N#Cc1cccc(CS(=O)(=O)N2CCN(c3ncnc4[nH]ccc34)CC23CC3)c1

Result:
1: 6.30 to 7.00; 2: > 7.00; 3: > 7.00; 4: > 7.00; 5: > 7.00; 6: > 7.00

// each compound listed below needs its pEC50
1. NC(=O)c1ccc(C(=O)N2CCN(c3ncnc4[nH]ccc34)CC23CC3)cc1
2. O=C(C1CCS(=O)(=O)CC1)N1CCN(c2ncnc3[nH]ccc23)CC12CC2
3. N#Cc1ccc(C(=O)N2[C@@H]3CC[C@H]2CN(c2ncnc4[nH]ccc24)C3)s1
4. N#Cc1cc(CC(=O)N2CCN(c3ncnc4[nH]ccc34)CC23CC3)ccc1F
5. O=C(c1cc2ccccc2[nH]1)N1CCN(c2ncnc3[nH]ccc23)CC12CC2
6. CC(=O)NCC(=O)N1[C@@H]2CC[C@@H]1CN(c1ncnc3[nH]ccc13)C2
7. N#CCOc1cccc(CC(=O)N2CCN(c3ncnc4[nH]ccc34)CC23CC3)c1

Result:
["> 7.00", "6.30 to 7.00", "> 7.00", "> 7.00", "> 7.00", "< 6.30", "6.30 to 7.00"]

# return pEC50 for each item in the list
1. CC(C)S(=O)(=O)c1ccc(C(=O)N2C3CCC2CN(c2ncnc4[nH]ccc24)C3)cc1
2. Cc1ccsc1C(=O)N1CCN(c2ncnc3[nH]ccc23)CC12CC2
3. N#Cc1ccc(CC(=O)N2CCN(c3ccnc4[nH]ccc34)CC23CC3)cc1
4. N#CCC(=O)N1CCN(c2ncnc3[nH]ccc23)CC12CC2
5. COCCOCC(=O)Nc1nc(N2CCN(C(=O)Cc3ccc(C#N)cc3)C3(CC3)C2)c2cc[nH]c2n1

Result:
1. 6.30 to 7.00
2. > 7.00
3. > 7.00
4. > 7.00
5. > 7.00

====

tested-system: JAK3 (catalytic domain, His-tag) (Homo sapiens, UniProt P52333)
Construct: All four purified enzymes contain only the catalytic domain; His (N); purchased Carna Biosciences, Inc; host or cells: baculovirus expression system
Sequence (P52333 822-1111 limits assumed): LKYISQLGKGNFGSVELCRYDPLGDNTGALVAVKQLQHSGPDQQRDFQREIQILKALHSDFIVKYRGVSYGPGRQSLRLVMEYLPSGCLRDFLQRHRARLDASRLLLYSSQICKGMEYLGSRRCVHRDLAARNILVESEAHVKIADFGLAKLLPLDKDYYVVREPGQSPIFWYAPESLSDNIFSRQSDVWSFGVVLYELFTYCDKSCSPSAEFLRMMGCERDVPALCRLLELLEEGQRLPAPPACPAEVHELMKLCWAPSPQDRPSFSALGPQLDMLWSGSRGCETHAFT
run-description: JAK kinase assay (HTRF, phosphorylation of TK substrate-biotin), JAK3
Format: biochemical
condition-info: ATP at Km (2 μM); read-out: JAK3 kinase inhibitory activity (EC50 indicator)
pEC50: −log10 of the molar value.
Would you mind telling me the reported pEC50 of each entry?

Guide cases for pEC50, answers given:
{"molecule": "Cn1cc(S(N)(=O)=O)cc1C(=O)N1C2CCC1CN(c1ncnc3[nH]ccc13)C2 [Example 142]", "pEC50": "> 7.00"}
{"molecule": "N#Cc1ccc(CS(=O)(=O)N2CCN(c3ncnc4[nH]ccc34)CC23CC3)cc1 [Example 79]", "pEC50": "6.30 to 7.00"}
{"molecule": "CC1CN(C(=O)c2ccc(C#N)cc2)C2(CC2)CN1c1ncnc2[nH]ccc12 (stereo not drawn) [Example 148]", "pEC50": "6.30 to 7.00"}
{"molecule": "O=C(Cc1cccnc1)N1[C@@H]2CC[C@@H]1CN(c1ncnc3[nH]ccc13)C2 [Example 172]", "pEC50": "< 6.30"}
{"molecule": "O=C([C@@H]1CCCc2ccccc21)N1C2CCC1CN(c1ncnc3[nH]ccc13)C2 [Example 137]", "pEC50": "< 6.30"}

Hi! Can you tell me pEC50 for each of these molecules?
1. N#CCOc1cccc(CC(=O)N2CCN(c3ncnc4[nH]ccc34)CC23CC3)c1 [Example 70]
2. CS(=O)(=O)c1ccc(CC(=O)N2C3CCC2CN(c2ncnc4[nH]ccc24)C3)cc1 [Example 134]
3. O=C(c1ccncc1)N1CCN(c2ncnc3[nH]ccc23)CC12CC2 [Example 3]
4. CS(=O)(=O)NCCC(=O)N1[C@@H]2CC[C@@H]1CN(c1ncnc3[nH]ccc13)C2 [Example 176]

Result:
1: 6.30 to 7.00; 2: < 6.30; 3: 6.30 to 7.00; 4: < 6.30

====

Can you tell me EC50 for the items I'm about to list?
tested-system: JAK1 (aa 850-1154, catalytic domain, GST-tag) (Homo sapiens, UniProt P23458)
Construct: JAK1 (aa 850-1154) and TYK2 (aa 871-1187) are expressed with an N-terminally fused GST-tag; GST (N); purchased Carna Biosciences, Inc; host or cells: baculovirus expression system
Sequence (P23458 850-1154): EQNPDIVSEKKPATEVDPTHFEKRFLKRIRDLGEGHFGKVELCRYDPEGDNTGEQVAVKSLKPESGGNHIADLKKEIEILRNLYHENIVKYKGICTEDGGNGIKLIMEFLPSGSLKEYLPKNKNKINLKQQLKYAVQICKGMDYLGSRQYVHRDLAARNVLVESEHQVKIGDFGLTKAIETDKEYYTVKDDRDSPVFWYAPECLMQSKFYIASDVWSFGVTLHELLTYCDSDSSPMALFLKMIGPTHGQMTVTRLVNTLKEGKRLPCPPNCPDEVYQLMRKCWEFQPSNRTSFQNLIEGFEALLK
run-description: JAK kinase assay (HTRF, phosphorylation of TK substrate-biotin), JAK1
Format: biochemical
condition-info: HTRF assay, ATP at Km (7 μM); read-out: JAK1 kinase inhibitory activity (EC50 indicator)

Look over these answered cases.
{"item-smiles": "O=C(c1csc2ccccc12)N1CCN(c2ncnc3[nH]ccc23)CC12CC2", "endpoint-result": "< 100 nM"}
{"item-smiles": "N#Cc1ccccc1C(=O)N1CCN(c2ncnc3[nH]ccc23)CC12CC2", "endpoint-result": "< 100 nM"}
{"item-smiles": "O=C(c1cc2ccccc2[nH]1)N1[C@@H]2CC[C@H]1CN(c1ncnc3[nH]ccc13)C2", "endpoint-result": "< 100 nM"}
{"item-smiles": "N#Cc1ccccc1C(=O)N1CCN(c2ccnc3[nH]ccc23)CC12CC2", "endpoint-result": "100 to 500 nM"}
{"item-smiles": "N#CC1(C(=O)N2[C@@H]3CC[C@@H]2CN(c2ncnc4[nH]ccc24)C3)CCOCC1", "endpoint-result": "100 to 500 nM"}
{"item-smiles": "CNS(=O)(=O)c1cc(C(=O)N2CCN(c3ncnc4[nH]ccc34)CC23CC3)sc1C", "endpoint-result": "< 100 nM"}
{"item-smiles": "NS(=O)(=O)c1cccc(C(=O)N2CCN(c3ncnc4[nH]ccc34)CC23CC3)c1", "endpoint-result": "< 100 nM"}
{"item-smiles": "N#Cc1ccc(CC(=O)N2CCN(c3nc(N)nc4[nH]ccc34)CC23CC3)cc1", "endpoint-result": "< 100 nM"}
{"item-smiles": "Cc1c(C(=O)N2CCN(c3ncnc4[nH]ccc34)CC23CC3)sc2ccccc12", "endpoint-result": "< 100 nM"}
{"item-smiles": "N#CCc1ccc(CC(=O)N2[C@@H]3CC[C@@H]2CN(c2ncnc4[nH]ccc24)C3)cc1", "endpoint-result": "100 to 500 nM"}

Okay, here is my list. What is EC50 for each of these?
1. N#CC1(C(=O)N2C[C@@H]3C[C@H]2CN3c2ncnc3[nH]ccc23)CC1
2. N#Cc1ccccc1CC(=O)N1CCN(c2ccnc3[nH]ccc23)CC12CC2
3. N#CCCC(=O)N1CCN(c2nc(N)nc3[nH]ccc23)CC12CC2

Result:
["> 500 nM", "> 500 nM", "< 100 nM"]

Respectfully, I request EC50 for each entry included below.
1. COc1cc(C(=O)N2CCN(c3ncnc4[nH]ccc34)CC23CC3)cs1
2. COc1ccc(C(=O)N2CCN(c3ncnc4[nH]ccc34)CC23CC3)s1

Result:
["< 100 nM", "< 100 nM"]
